Tested on: HCC95
method_description: Antiproliferative activity against human HCC95 cells assessed as inhibition of cell viability at 1 uM incubated for 3 to 6 days by CCK8 assay relative to control
Format: functional
setup_conditions: time 3-6 day
Parameter threshold = 40%. Response is Condition met when inhibition at 1 µM meets or exceeds it, else Condition not met.

Solved entries:
O=C1C(NCCc2ccncc2)=C(Cl)C(=O)c2ncccc21 | Condition met
Cc1ccc(CCNC2=C(Cl)C(=O)c3cccnc3C2=O)cc1 | Condition not met
CC1=C(NCCN2CCOCC2)C(=O)c2ccccc2C1=O | Condition not met
CC(C)(C)OC(=O)N1CC2(CC(NC3=C(Cl)C(=O)c4cccnc4C3=O)C2)C1 | Condition not met
CC(C)(C)OC(=O)N1CC2(C1)CN(C1=C(Cl)C(=O)c3ncccc3C1=O)C2 | Condition met
CC(C)(C)OC(=O)N1CC2(CC(NC3=C(Cl)C(=O)c4ncccc4C3=O)C2)C1 | Condition met
COc1cccc(CCNC2=C(Cl)C(=O)c3ncccc3C2=O)c1 | Condition met
O=C1C(Cl)=C(NC2CC3(CNC3)C2)C(=O)c2ncccc21 | Condition not met

stdin: I'd appreciate it if you could say whether O=C1C(Nc2ccc(CN3CCOCC3)cc2)=C(Cl)C(=O)c2ncccc21 has inhibition at 1 µM at least equal to 40%.
stdout: Condition not met

stdin: Could you please find out whether O=C1C(Cl)=C(N2CCC3(CC2)OCCO3)C(=O)c2ncccc21 has inhibition at 1 µM that meets 40% or exceeds it?
stdout: Condition not met

stdin: Hello, I need to know if CCN(CC)CCNC1=C(Cl)C(=O)c2ncccc2C1=O has measured inhibition at 1 µM not below 40%. Thanks!
stdout: Condition not met
